test: Cytotoxicity against human BEAS-2B cells assessed as inhibition of cell growth incubated for 72 hrs by CCK8 assay; format: toxicity, cell-based
Property Name: IC50 at 72 h

- O=C1CCC(Nc2cccc(N3CCN(CC4CCN(CC(=O)N5CCC(NC(=O)c6n[nH]cc6NC(=O)c6c(Cl)cccc6Cl)CC5)CC4)CC3)c2)C(=O)N1 (stereo unspecified): 413 nM

----------
assay: AUC (0 to infinity) in mouse at 5 mg/kg, iv; format: ADME, organism-based; conditions: in vivo
Property Name: AUC(0-inf) (ng·h/mL)

- O=C1CCC(Nc2cccc(N3CCN(CC4CCN(CC(=O)N5CCC(NC(=O)c6n[nH]cc6NC(=O)c6c(Cl)cccc6Cl)CC5)CC4)CC3)c2)C(=O)N1 (stereo unspecified): 2860

// provenance: ChEMBL document CHEMBL6121063
